Entry source: the supplement of paper PMC10065799

# STUDY SYSTEM: MERTK (UniProt Q12866)
# Sequence (Q12866 whole entry, looked up): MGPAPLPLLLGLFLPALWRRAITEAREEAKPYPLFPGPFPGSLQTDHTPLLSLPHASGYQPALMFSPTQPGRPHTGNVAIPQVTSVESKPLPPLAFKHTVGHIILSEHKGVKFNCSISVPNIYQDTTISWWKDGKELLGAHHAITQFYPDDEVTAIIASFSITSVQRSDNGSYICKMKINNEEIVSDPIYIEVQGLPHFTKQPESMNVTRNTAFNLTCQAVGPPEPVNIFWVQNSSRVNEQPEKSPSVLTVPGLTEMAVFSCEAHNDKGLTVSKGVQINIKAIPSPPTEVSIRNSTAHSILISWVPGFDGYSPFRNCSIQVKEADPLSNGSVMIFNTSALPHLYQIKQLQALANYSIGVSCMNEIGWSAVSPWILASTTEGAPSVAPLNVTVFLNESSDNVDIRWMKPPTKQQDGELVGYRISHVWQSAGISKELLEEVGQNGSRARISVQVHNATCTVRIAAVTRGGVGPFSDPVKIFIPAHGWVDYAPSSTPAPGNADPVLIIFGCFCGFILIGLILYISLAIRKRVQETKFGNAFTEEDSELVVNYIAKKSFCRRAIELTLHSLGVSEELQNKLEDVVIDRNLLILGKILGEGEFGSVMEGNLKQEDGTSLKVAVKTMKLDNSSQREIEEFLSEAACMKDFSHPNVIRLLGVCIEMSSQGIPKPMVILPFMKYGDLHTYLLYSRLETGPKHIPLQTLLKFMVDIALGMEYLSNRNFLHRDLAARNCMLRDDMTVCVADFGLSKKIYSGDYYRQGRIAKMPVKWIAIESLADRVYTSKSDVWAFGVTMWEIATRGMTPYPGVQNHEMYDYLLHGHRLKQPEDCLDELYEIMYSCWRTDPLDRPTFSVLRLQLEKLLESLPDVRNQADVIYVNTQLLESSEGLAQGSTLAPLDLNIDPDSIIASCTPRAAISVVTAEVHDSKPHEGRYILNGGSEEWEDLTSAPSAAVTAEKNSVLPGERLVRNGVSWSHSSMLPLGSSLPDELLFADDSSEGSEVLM
# METHOD SUMMARY: phosphorylation enrichment, bacterial display (enrichment ratio); higher = better substrate or ligand; peptides without Tyr show the background;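 further: 11-residue human phosphosite peptides and single-mutation variants displayed on the E. coli surface, counted by deep sequencing, each peptide's frequency after selection divided by its frequency in the unselected input library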;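 further: frequency after pTyr selection over input frequency; kinase dosed for 20-30% of maximal phosphorylation in three min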
Tag: Satisfied if measured phosphorylation enrichment is not below 0.5, Not satisfied if it is.

Kindly determine if phosphorylation enrichment recorded for ANNEYYFRVCA is above or exactly 0.5.
Not satisfied

New cases:
Kindly determine if phosphorylation enrichment recorded for RGERPYGGGGG [FUS_Y526_R522G] is above or exactly 0.5.
Not satisfied

Kindly determine if phosphorylation enrichment recorded for VKANTYEKFWP [GATM_Y100_YF] is above or exactly 0.5.
Satisfied

Kindly determine if phosphorylation enrichment recorded for SLLKDYSPQLQ [OTC_Y345_T343K] is above or exactly 0.5.
Not satisfied
